The origin of these recorded values is patent EP1377579B1.

- Test system: MDA-MB-435
- METHOD_SUMMARY: In vitro proliferation assay (MTT), MDA-MB-435
- Type: cell-based, human
- CONDITIONS: Homo sapiens, MDA-MB-435, read-out: MB-435 Breast (IC50 µM)
- Experimental: The proliferation of tumor cells can be measured using a tetrazolium salt-based assay known as the MTT (3-[4,5-Dimethylthiazol-2-yl]-2,5-diphenyltetrazolium bromide) assay. […] The absorbance at 570 nm is determined for each culture using a Spectramax plate reader (Molecular Devices). IC50s were determined from the raw data from either the MTT or SRB assays. […]
Assignment: determine reported IC50 for the given compounds.
Answers are plain numbers, in µM.

Answered cases to consult:
| COMPOUND | IC50 [µM] |
| --- | --- |
| Cl.Cl.N[C@H]1CC[C@H](Nc2nc(NC3CCN(C(=O)Oc4ccccc4)CC3)c3ncn(C4CCCC4)c3n2)CC1 [compound 85, dihydrochloride] | 0.03 |
| Cl.Cl.N[C@H]1CC[C@H](Nc2nc(NC3CCN(C(=O)Oc4ccc(Cl)cc4)CC3)c3ncn(C4CCCC4)c3n2)CC1 [compound 88, dihydrochloride] | 0.02 |

Attention now turns to another entry.
Given the compound Cc1ccc(OC(=O)N2CCC(Nc3nc(N[C@H]4CC[C@H](N)CC4)nc4c3ncn4C3CCCC3)CC2)cc1.Cl.Cl [compound 82, dihydrochloride] , what is its reported IC50? 0.06
